# Target of assay: recombinant human CCR5 receptor (Homo sapiens)
# Sequence (P51681 whole entry): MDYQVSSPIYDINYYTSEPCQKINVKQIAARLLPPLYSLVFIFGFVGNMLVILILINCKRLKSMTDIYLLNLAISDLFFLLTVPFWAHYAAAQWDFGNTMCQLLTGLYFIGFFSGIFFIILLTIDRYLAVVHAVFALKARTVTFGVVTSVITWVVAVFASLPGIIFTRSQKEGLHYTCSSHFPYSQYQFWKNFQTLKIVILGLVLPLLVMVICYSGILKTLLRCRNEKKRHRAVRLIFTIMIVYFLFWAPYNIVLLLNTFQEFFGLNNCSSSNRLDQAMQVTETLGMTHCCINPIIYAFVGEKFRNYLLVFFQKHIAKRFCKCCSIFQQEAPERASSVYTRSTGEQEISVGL
# Test: in vitro radioligand binding assay, inhibition of binding of iodinated RANTES or MIP-1α (scintillation proximity)
# Test context: membranes from Chinese hamster ovary cells expressing recombinant human CCR5; 0.1 nM iodinated RANTES or MIP-1α; read-out: IC50 (concentration of compound which displaced 50% of bound iodinated RANTES or MIP-1α)
Property: IC50 (nM)
Please state the figure in nM; there is no need to write the unit.

Some solved cases for reference:
Smiles text: CCN(C(=O)Cc1ccc(S(C)(=O)=O)cc1)C1CCN(CC[C@H](NC(=O)C2CCN(C(C)=O)CC2)c2ccccc2)CC1
IC50 [nM]: 39
--
Smiles text: CCN(C(=O)Cc1ccc(S(C)(=O)=O)cc1)C1CCN(CC[C@H](NC(=O)OCCOC)c2ccccc2)CC1
IC50 [nM]: 110

Query: # query: IC50 of entry CCN(C(=O)Cc1ccc(S(C)(=O)=O)cc1)C1CCN(CC[C@H](NC(=O)C2CCN(S(C)(=O)=O)CC2)c2ccccc2)CC1
Result: 28

Origin of values: patent US20060167048A1
